assayed_target: ROP18 (Toxoplasma gondii, UniProt Q2PAY2)
Sequence (Q2PAY2 98-554): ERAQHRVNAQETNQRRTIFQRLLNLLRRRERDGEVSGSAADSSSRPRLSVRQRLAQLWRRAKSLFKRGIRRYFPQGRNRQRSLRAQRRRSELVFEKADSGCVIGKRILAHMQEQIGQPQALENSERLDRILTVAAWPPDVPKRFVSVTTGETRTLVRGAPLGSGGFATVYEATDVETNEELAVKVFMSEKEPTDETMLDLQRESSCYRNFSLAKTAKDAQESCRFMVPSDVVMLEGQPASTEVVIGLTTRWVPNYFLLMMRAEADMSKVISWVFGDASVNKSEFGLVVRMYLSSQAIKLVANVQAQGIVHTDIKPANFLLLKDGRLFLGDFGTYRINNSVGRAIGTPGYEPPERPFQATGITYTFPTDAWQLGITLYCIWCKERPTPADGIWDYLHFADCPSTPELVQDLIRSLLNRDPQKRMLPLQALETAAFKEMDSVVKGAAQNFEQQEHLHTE
assay_details: biochemical
measurement_label: pKi
Just so you know, pKi here is -log10 of the concentration in molar units; reply with that number alone.

QUERY: Any idea what pKi was measured for O=c1[nH]ccc2nc(NC3CCCNC3)nc(Nc3ccc(S(=O)(=O)N4CCOCC4)cc3)c12 (centres unmarked) ?
RESULT: 6.57

QUERY: Here is the next molecule: "CC(C)COC(=O)c1ccc2c(c1)/C(=C/Nc1ccc(S(N)(=O)=O)cc1)C(=O)N2"
RESULT: 6.89

###

assayed_target: ROP18 (Toxoplasma gondii)
assay_details: biochemical
condition_parameters: IC50 μM FL-8, substrate peptide FL-8, same assay conditions as primary screen
Decide using IC50 alone. Strictly below 0.7 µM: t. Equal to or above 0.7 µM: f.

QUERY: A record lists "NS(=O)(=O)c1ccc(NN=C2C(=O)Nc3ccc(C(=O)NCc4ccncc4)cc32)cc1" . Is its IC50 below 0.7 µM?
RESULT: f

QUERY: Here is the next molecule: "CS(=O)(=O)Cc1ccc(Nc2nccc(-c3c(-c4cccc(NC(=O)c5c(F)cccc5F)c4)nn4ccccc34)n2)cc1"
RESULT: f

QUERY: Here is the next molecule: "NS(=O)(=O)c1ccc(N/C=C2\C(=O)Nc3ccc4ncsc4c32)cc1"
RESULT: f

QUERY: Here is the next molecule: Oc1nccc2nc(NC3CCNC3)nc(Nc3cc(Cl)cc(Cl)c3)c12 (stereo not drawn)
RESULT: f

QUERY: Here is the next molecule: O=c1[nH]ccc2nc(NC3CCCNC3)nc(Nc3ccc(S(=O)(=O)N4CCOCC4)cc3)c12 (stereo not drawn)
RESULT: t

QUERY: Here is the next molecule: "CC(C)COC(=O)c1ccc2c(c1)/C(=C/Nc1ccc(S(N)(=O)=O)cc1)C(=O)N2"
RESULT: t

QUERY: Here is the next molecule: O=S1(=O)CCc2ccc(Nc3nc(NC4CCNC4)nc4ccnc(O)c34)cc21 (stereo not drawn)
RESULT: f

QUERY: Here is the next molecule: "CS(=O)(=O)Cc1ccc(Nc2nccc(-c3c(-c4cccc(NC(=O)C5CCCCC5)c4)nn4ncccc34)n2)cc1"
RESULT: f

QUERY: Here is the next molecule: "COc1ccc(NC(=O)Nc2nc(SCC(=O)C(C)(C)C)ns2)cc1"
RESULT: f

QUERY: Here is the next molecule: "CC(C)(CO)CNC(=O)c1ccc2c(c1)C(=NNc1ccc(S(N)(=O)=O)cc1)C(=O)N2"
RESULT: t

QUERY: Here is the next molecule: "NS(=O)(=O)CCc1cccc(Nc2nccc(-c3c(-c4cccc(NC(=O)c5c(F)cccc5F)c4)nn4ccccc34)n2)c1"
RESULT: t

QUERY: Here is the next molecule: Cc1cccc(Nc2nc(NC3CCCCC3N)ncc2C(N)=O)c1 (stereo not drawn)
RESULT: f

###

assayed_target: ROP18 (Toxoplasma gondii, UniProt Q2PAY2)
assay_details: biochemical
condition_parameters: IC50 μM FL-E, substrate peptide FL-E, same assay conditions as primary screen
Would you mind telling me the reported log10 IC50 of each entry?
For clarity, the numbers are log10 values of IC50 expressed in µM.

QUERY: Any idea what log10 IC50 was measured for O=c1[nH]ccc2nc(NC3CCCNC3)nc(Nc3ccc(S(=O)(=O)N4CCOCC4)cc3)c12 (stereo not drawn) ?
RESULT: -0.74

QUERY: Here is the next molecule: "COc1ccc(NC(=O)Nc2nc(SCC(=O)C(C)(C)C)ns2)cc1"
RESULT: 0.81

QUERY: Here is the next molecule: "CS(=O)(=O)Cc1ccc(Nc2nccc(-c3c(-c4cccc(NC(=O)c5c(F)cccc5F)c4)nn4ccccc34)n2)cc1"
RESULT: 0.00

QUERY: Here is the next molecule: "CC(C)(CO)CNC(=O)c1ccc2c(c1)C(=NNc1ccc(S(N)(=O)=O)cc1)C(=O)N2"
RESULT: -0.72

QUERY: Here is the next molecule: Oc1nccc2nc(NC3CCNC3)nc(Nc3cc(Cl)cc(Cl)c3)c12 (stereo not drawn)
RESULT: 0.87

QUERY: Here is the next molecule: "NS(=O)(=O)c1ccc(NN=C2C(=O)Nc3ccc(C(=O)NCc4ccncc4)cc32)cc1"
RESULT: 0.42

QUERY: Here is the next molecule: Cc1cccc(Nc2nc(NC3CCCCC3N)ncc2C(N)=O)c1 (stereo not drawn)
RESULT: 0.82

QUERY: Here is the next molecule: "NS(=O)(=O)c1ccc(N/C=C2\C(=O)Nc3ccc4ncsc4c32)cc1"
RESULT: 0.39

QUERY: Here is the next molecule: "CC(C)COC(=O)c1ccc2c(c1)/C(=C/Nc1ccc(S(N)(=O)=O)cc1)C(=O)N2"
RESULT: -0.54

QUERY: Here is the next molecule: "NS(=O)(=O)CCc1cccc(Nc2nccc(-c3c(-c4cccc(NC(=O)c5c(F)cccc5F)c4)nn4ccccc34)n2)c1"
RESULT: -0.03

QUERY: Here is the next molecule: O=S1(=O)CCc2ccc(Nc3nc(NC4CCNC4)nc4ccnc(O)c34)cc21 (stereo not drawn)
RESULT: 0.60
